- assayProtocol: Volume of distribution at steady state in cynomolgus monkey at 5 mg/kg, po and 1.5 mg/kg, iv
- Assay type: ADME, organism-based, Macaca fascicularis
- conditionsUsed: in vivo, read-out: Vdss
quantityMeasured: Vd (L/kg)

- CC#CCn1c(N2CCC[C@@H](N)C2)nc2c1c(=O)n(Cc1nc(C)c3ccccc3n1)c(=O)n2C [LINAGLIPTIN]: 15.8

----------
- assayProtocol: Dissociation constant, pKa corresponding to the protonation of the primary amino group
- Assay type: physicochemical
quantityMeasured: pKa

• CC#CCn1c(N2CCC[C@@H](N)C2)nc2c1c(=O)n(Cc1nc(C)c3ccccc3n1)c(=O)n2C = 8.6

----------
- assayProtocol: Distribution coefficient, log D at pH 7.4
- Format: physicochemical
- conditionsUsed: octanol/water
quantityMeasured: logD

- CC#CCn1c(N2CCC[C@@H](N)C2)nc2c1c(=O)n(Cc1nc(C)c3ccccc3n1)c(=O)n2C [LINAGLIPTIN]: 0.4

----------
- assayProtocol: Clearance in rat at 5 mg/kg, po and 5 mg/kg, iv
- Type: ADME, organism-based
- conditionsUsed: in vivo
quantityMeasured: clearance (mL/min/kg)

- CC#CCn1c(N2CCC[C@@H](N)C2)nc2c1c(=O)n(Cc1nc(C)c3ccccc3n1)c(=O)n2C: 37.3

----------
- targetDesc: Muscarinic acetylcholine receptor M1 (Homo sapiens)
- Sequence (P11229 whole entry): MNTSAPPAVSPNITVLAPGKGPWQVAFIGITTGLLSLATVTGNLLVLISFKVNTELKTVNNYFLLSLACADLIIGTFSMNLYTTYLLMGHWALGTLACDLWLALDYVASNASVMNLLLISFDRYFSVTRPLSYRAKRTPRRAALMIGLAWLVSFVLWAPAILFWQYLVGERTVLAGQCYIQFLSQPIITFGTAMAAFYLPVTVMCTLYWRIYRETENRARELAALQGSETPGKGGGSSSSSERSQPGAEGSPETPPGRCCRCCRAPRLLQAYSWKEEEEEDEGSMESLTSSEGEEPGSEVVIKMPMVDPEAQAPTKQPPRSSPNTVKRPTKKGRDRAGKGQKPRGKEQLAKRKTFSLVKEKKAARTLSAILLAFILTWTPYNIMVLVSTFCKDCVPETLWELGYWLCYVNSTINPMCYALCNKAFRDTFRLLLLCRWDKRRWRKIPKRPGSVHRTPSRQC
- assayProtocol: Displacement of [N-methyl-3H]scopolamine from human recombinant muscarinic M1 receptor expressed in CHO cells
pIC50: −log10 of the molar value.
Each item that follows carries a reported pIC50.
quantityMeasured: pIC50

* CC(C)=CCn1c(N2CCC[C@@H](N)C2)nc2c1c(=O)n(CC(=O)c1ccccc1)c(=O)n2C | 7.60
* CC#CCn1c(N2CCC[C@@H](N)C2)nc2c1c(=O)n(Cc1nc(C)c3ccccc3n1)c(=O)n2C | 6.53
* CC#CCn1c(N2CCC[C@H](N)C2)nc2c1c(=O)n(CC(=O)c1ccccc1)c(=O)n2C | 5.95
* CC#CCn1c(N2CCC[C@@H](N)C2)nc2c1c(=O)n(CC(=O)c1ccccc1OCC(=O)NC)c(=O)n2C | 5.93
* CC#CCn1c(N2CCC[C@@H](N)C2)nc2c1c(=O)n(Cc1nc(C)cc3ccccc13)c(=O)n2C | 6.37
* CC#CCn1c(N2CCC[C@@H](N)C2)nc2c1c(=O)n(Cc1ccc(OC)cc1)c(=O)n2C | 6.29
* CC#CCn1c(N2CCC[C@@H](N)C2)nc2c1c(=O)n(CC(=O)c1ccccc1)c(=O)n2C | 5.21
* CC(C)=CCn1c(N2CCC[C@@H](N)C2)nc2c1c(=O)n(Cc1nccc3ccccc13)c(=O)n2C | 8.30
* CC(C)=CCn1c(N2CCC[C@H](N)C2)nc2c1c(=O)n(CC(=O)c1ccccc1)c(=O)n2C | 7.30
* CC(C)=CCn1c(N2CCC[C@H](N)C2)nc2c1c(=O)n(Cc1nccc3ccccc13)c(=O)n2C | 7.59

----------
- assayProtocol: Oral bioavailability in cynomolgus monkey at 5 mg/kg
- Type: ADME, organism-based, Macaca fascicularis
- conditionsUsed: in vivo
quantityMeasured: bioavailability (%)

- CC#CCn1c(N2CCC[C@@H](N)C2)nc2c1c(=O)n(Cc1nc(C)c3ccccc3n1)c(=O)n2C: 50.1
